# Method Notes: small-molecule microarray binders of probe aXIP, primary screen, biochemical, NeuroSMM set, 635/667 nm fluorescence (AID 1119);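 also: probe is the protein aXip251-270 applied at 1 µg/mL to compound-printed slides; binding of probe to printed compounds measured as 667 nm fluorescence plus signal to noise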
# Test Settings: higher = more signal, called active from +8 up or from −8 down
Give composite Z-score for every item shown.
One number for each entry.

Worked examples, 4 compounds total:
Smiles: Cc1ccc(S[C@]2(C(=O)NCC(F)(F)F)CC(=O)N(C3CCCCC3)[C@@H]2c2ccc(CO)cc2)cc1
composite Z-score: 0.399

Smiles: COc1ccc(CCNC(=O)[C@@]2(Sc3ccc(C)cc3)CC(=O)N(C(C)C)[C@@H]2c2ccc(CO)cc2)cc1
composite Z-score: 0.397

Smiles: [N-]=[N+]=NCc1ccccc1C[C@]1(C(=O)N2CCCCC2)N=C(c2ccc(OCCCO)cc2)O[C@H]1c1ccccc1
composite Z-score: 0.397

Smiles: C#CCN=C(N)N
composite Z-score: 0.322

// query Fill in the blank: the reported composite Z-score of "NCCCC[C@@H]1NC(=O)[C@H]2C[C@@H](C(=O)O)[C@@H](c3cccc(OCCO)c3)N2C1=O" is ____.
// result 1.71

* * *

# Target: Calmodulin-1 (Homo sapiens)
# Method Notes: CALM1 binders on microarrays, EGTA buffer, profiling panel, biochemical, small-molecule microarray, Cy5-labelled CALM1 (AID 1111);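 also: labelled calmodulin applied in Tris saline Tween buffer holding calcium plus EGTA and DTT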
# Test Settings: Cy5-CALM1 binding fluorescence, higher = more signal
Measured Metric: composite z-score
Give bare numbers.

Worked examples, 5 compounds total:
Compound: C=CCC(OC(C)=O)[C@@H]1[C@@H](N(Cc2cc3ccccc3o2)C(=O)Cc2ccc(OC)cc2)c2cc(OCCCO)ccc2N1C(=O)Cc1ccc2ccccc2c1 (some centres not stated)
composite z-score: -0.197
//
Compound: COC(=O)[C@@]1(Cc2ccc(F)cc2)[C@H]2c3cc(C(=O)N(C)C)n(CCN4CCOCC4)c3C[C@H]2CN1C(=O)c1ccccc1
composite z-score: 0.639
//
Compound: CC(C)C[C@@H]1NC(=O)[C@@]23C(=O)N[C@@H](Cc4ccccc4)C2[C@H](C)[C@@]2(C)O[C@H]2C3/C=C/C/C=C\CNC(=O)[C@@H](CC(C)C)NC1=O (some centres not stated)
composite z-score: -0.475
//
Compound: CCOC(=O)C1=CC[C@@H](c2ccc(F)cc2)N(S(=O)(=O)c2ccc(C)cc2)[C@H]1c1ccc([N+](=O)[O-])cc1
composite z-score: 1.56
//
Compound: [N-]=[N+]=NCc1ccccc1C[C@]1(C(=O)N2CCOCC2)N=C(c2ccc(OCCCO)cc2)O[C@H]1c1ccccc1CN=[N+]=[N-]
composite z-score: 2.49

// input: 2 compounds below; output: composite z-score for each
1. CC(C)C[C@@H]1NC(=O)[C@@H]2C[C@H](C(=O)O)[C@H](c3ccc(O)cc3)N2C1=O
2. COc1ccc(CCNC(=O)[C@@]2(Sc3ccc(C)cc3)CC(=O)N(C(C)C)[C@@H]2c2ccc(CO)cc2)cc1

// result
[1.31, 0.359]

* * *

# Method Notes: adipocyte viability effects, profiling panel, cell-based, 3T3-L1 adipocytes, calcein-AM fluorescence, 48 h, basal (AID 1163); also: test concentration not given here
# Test Settings: 3T3-L1 adipocytes viability, higher = more signal
Measured Metric: z-score
One number for each entry.

These recorded examples may help you get a feel for the data.
Molecule: [N-]=[N+]=NCc1ccccc1[C@@H]1OC(c2ccc(OCCCO)cc2)=N[C@]1(Cc1ccccc1)C(=O)NCc1ccccc1
z-score: 0.592

Molecule: CCOC(=O)C1=CC[C@@H](c2ccccc2Cl)N(S(=O)(=O)c2ccc(C)cc2)[C@H]1c1cccc(OC)c1
z-score: -1.56

Molecule: COc1cccc(C[C@H]2C[C@@H](CO[Si](C(C)C)(C(C)C)C(C)C)N3C(=O)[C@@]4(C(C)=O)O[C@@]23[C@@H]2C(=O)N(C)C(=O)[C@@H]24)c1
z-score: 0.202

Molecule: CCc1cccc(NC(=O)O[C@H]2[C@H](OC(=O)Nc3ccc4c(c3)OCO4)[C@H](OC(=O)Nc3ccc4c(c3)OCO4)[C@@H](OC)O[C@@H]2CO)c1
z-score: 1.16

Molecule: C=C(COC)/C(=C/C[C@@H](OC(C)=O)c1ccccc1OCCO)c1cc(C(=O)OC)ccc1OC
z-score: -2.49

Molecule: CCCC[C@@H]1C[C@H]1[C@@H](NC(=O)Cc1ccccc1)c1ccc(Cl)cc1
z-score: -0.669

Hi, could you look up z-score for each item in my list?
1. COC(=O)[C@@H]1N=C(c2ccc(OCCCO)cc2)O[C@@H]1c1ccccc1CN=[N+]=[N-]
2. C#CCN([C@H](/C=C/C1CC1)[C@@H](O)Cc1ccccc1)[C@@H](Cc1ccccc1)C(=O)OC
3. C=CCC(OC(C)=O)[C@@H]1[C@@H](N(Cc2ccc(-c3cccc(C(F)(F)F)c3)o2)C(=O)c2cccc3ccccc23)c2cc(OCCCO)ccc2N1C(=O)c1ccc2ccccc2n1 (stereo not given in full)
4. C#CCN(C/C=C/c1ccccc1)[C@H](CO[Si](C)(C)C(C)(C)C)c1ccccc1
5. CO[C@H]1O[C@H](CO)[C@@H](OC(=O)Nc2ccccc2)[C@@H]2OC(=O)[C@H](Cc3ccccc3)C/C=C/C[C@@H](Cc3ccccc3)C(=O)O[C@@H]12

// result
-0.446
-0.129
0.953
-0.0156
0.385

* * *

# Target: Calmodulin-1 (Homo sapiens) (UniProt P0DP23)
# Method Notes: CALM1 binders on microarrays, EGTA buffer, profiling panel, biochemical, small-molecule microarray, Cy5-labelled CALM1 (AID 1111);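 also: labelled calmodulin applied in Tris saline Tween buffer holding calcium plus EGTA and DTT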
# Test Settings: Cy5-CALM1 binding fluorescence, higher = more signal
Param threshold (0.2) applies to composite z-score; output criterion met when value >= threshold, criterion not met when value < threshold.

Compound: [N-]=[N+]=NCc1ccccc1C[C@@]1(C(=O)O)N=C(c2ccc(OCCCO)cc2)O[C@@H]1c1ccccc1CN=[N+]=[N-]
Assigned Label: criterion met
//
Compound: COc1ccc([Si](C)(C)[C@H]2[C@H](CC(=O)N3Cc4ccccc4C[C@H]3CO)O[C@@]3(C(=O)N(Cc4cccc(N5C(=O)c6cccc7cccc5c67)c4)c4ccccc43)[C@@H]2C)cc1
Assigned Label: criterion not met
//
Compound: COc1ccc(C(O)C2C=CC3C(=O)N(C)C(=O)C3N2Nc2ccc([N+](=O)[O-])cc2[N+](=O)[O-])cc1OCc1ccccc1 (stereo unspecified)
Assigned Label: criterion met
//
Compound: O=C1O[C@H](c2ccccc2)[C@H](c2ccccc2)N2[C@H]1[C@@H](C(=O)NC[C@H](O)c1ccccc1)[C@]1(C(=O)Nc3ccc(C#CCCO)cc31)[C@H]2c1ccccc1OCCO
Assigned Label: criterion met

// query Test whether the compound "Cc1ccc(S[C@]2(C(=O)NCC(F)(F)F)CC(=O)N(C3CCCCC3)[C@@H]2c2ccc(CO)cc2)cc1" records composite z-score of 0.2 or higher.
// result criterion met

// query Identify whether the reported composite z-score of the following compound is 0.2 or greater: "COCCOC(=O)N1C(=O)[C@@]2(c3cc(C#Cc4ccc(OC)cc4)ccc31)[C@H](c1ccc(OCCO)cc1)N1[C@H](c3ccccc3)[C@H](c3ccccc3)OC(=O)[C@H]1[C@@H]2C(=O)N1CCCCCCC1"
// result criterion met

// query Decide: is the reported value of composite z-score for "Cc1ccc(S[C@]2(C(=O)NCCCN(C)C)CC(=O)N(Cc3ccccc3Cl)[C@@H]2c2ccc(CO)cc2I)cc1" equal to or greater than 0.2?
// result criterion not met

// query Record C=CCC(OC(C)=O)[C@@H]1[C@@H](N(Cc2cc3ccccc3o2)C(=O)c2ccc(-c3ccccc3)cc2)c2cc(OCCCO)ccc2N1C(=O)c1ccc2ccccc2n1 (stereo partly specified) ; criterion: composite z-score no lower than 0.2. Met?
// result criterion not met

// query Could you tell me if the measured composite z-score of "COC(=O)[C@@]1(Cc2ccc(F)cc2)[C@H]2c3cc(C(=O)N(C)C)n(CCO)c3C[C@H]2CN1C(=O)c1ccccc1" reaches 0.2 or more?
// result criterion met

// query # check: composite z-score of "C#CCN([C@H](/C=C/C1CC1)[C@@H](O)Cc1ccccc1)[C@@H](Cc1ccccc1)C(=O)OC" is greater than or equal to 0.2
// result criterion not met

// query Please tell me: is the compound "COC(=O)[C@@]1(CCS(=O)(=O)c2ccccc2)N=C(c2ccc(OCCCO)cc2)O[C@H]1c1ccccc1N=[N+]=[N-]" at or over 0.2 in terms of composite z-score?
// result criterion met

// query Answer whether composite z-score of "Cc1c(NC(=O)/C(C#N)=C/c2ccc(Cl)cc2)c(=O)n(-c2ccccc2)n1C" is greater than or equal to 0.2.
// result criterion met

// query Given "COCCOC(=O)N1C(=O)[C@@]2(c3cc(C#CCCO)ccc31)[C@H](C(=O)N1CCN(c3ncccn3)CC1)[C@H]1C(=O)O[C@H](c3ccccc3)[C@H](c3ccccc3)N1[C@@H]2c1ccc(O)cc1" , state whether its composite z-score is at least 0.2.
// result criterion not met

// query Reported composite z-score at or above 0.2? "C=C(CCCC)/C(=C/C[C@H](OC(C)=O)c1cccc(OCCO)c1)c1cc(C(=O)OC)ccc1OC"
// result criterion not met

// query Form field: composite z-score at least 0.2? Entry: COc1cc2c(cc1O)C(c1ccc(CN3CCCC3)cc1)N(Cc1cccc(OC(F)(F)F)c1)CC2 (stereo unspecified)
// result criterion not met

// query // inclusive: composite z-score at least 0.2? input: C=CCC(OC(C)=O)[C@@H]1[C@@H](N(Cc2cccc3ccccc23)C(=O)c2ccc(-c3ccccc3)cc2)c2cc(OCCCO)ccc2N1C(=O)c1ccc2ccccc2n1 (stereo partly specified)
// result criterion met

// query I'd appreciate it if you could say whether "C=C(CCCC)C(=O)CC[C@H](OC(=O)c1cccnc1)c1ccc(CO)o1" has composite z-score at least equal to 0.2.
// result criterion met

// query Evaluate "O=c1cccc(-c2ccccc2C(F)(F)F)o1" : composite z-score at minimum 0.2?
// result criterion not met

// query Has "COCCOC(=O)N1C(=O)[C@@]2(c3cc(C#CC4(O)CCCCCC4)ccc31)[C@H](C(=O)NC[C@H](O)c1ccccc1)[C@H]1C(=O)O[C@H](c3ccccc3)[C@H](c3ccccc3)N1[C@@H]2c1ccc(O)cc1" a recorded composite z-score greater than or equal to 0.2?
// result criterion met

// query Is composite z-score at least 0.2? Consider "CCOC(=O)C1=CC[C@@H](c2ccccc2)N(S(=O)(=O)c2ccc(C)cc2)[C@H]1C#N"
// result criterion met

// query Dear colleague, could you confirm whether "Cc1ccc(S(=O)(=O)N2[C@@H](c3ccccc3)C(C(=O)O)=CC[C@H]2c2ccc(C#N)cc2)cc1" has composite z-score at or above 0.2?
// result criterion met
